For each record, write down the corresponding pIC50.
# Tested System: E-selectin (Homo sapiens)
# Construct: fusion proteins formed from the extracytoplasmatic domains of E- or P-selectin, respectively, and the constant region of human immunoglobulin of the IgG1 subclass
# Sequence (P16581 22-556): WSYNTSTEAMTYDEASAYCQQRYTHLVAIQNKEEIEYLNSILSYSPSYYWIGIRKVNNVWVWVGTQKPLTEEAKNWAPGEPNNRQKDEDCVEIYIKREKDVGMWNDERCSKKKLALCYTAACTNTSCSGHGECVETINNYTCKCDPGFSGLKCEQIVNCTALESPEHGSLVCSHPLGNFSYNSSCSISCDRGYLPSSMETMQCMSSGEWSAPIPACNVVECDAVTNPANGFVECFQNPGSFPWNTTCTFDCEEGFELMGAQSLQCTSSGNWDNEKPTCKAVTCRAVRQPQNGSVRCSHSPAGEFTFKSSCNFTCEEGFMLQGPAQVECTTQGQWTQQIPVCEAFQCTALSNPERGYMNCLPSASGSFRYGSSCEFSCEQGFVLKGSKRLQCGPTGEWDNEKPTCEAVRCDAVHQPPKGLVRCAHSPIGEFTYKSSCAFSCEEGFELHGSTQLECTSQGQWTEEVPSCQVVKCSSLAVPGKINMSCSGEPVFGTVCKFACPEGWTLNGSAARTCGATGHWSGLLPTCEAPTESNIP
# Assay Explanation: HL60 cell adhesion assay on recombinant soluble E-selectin-IgG1 fusion protein
# Measurement Setup: HL60 cell adhesion to E-selectin-IgG1
One number for each entry, as −log10 of the molar value.

# Molecule, Quantitative Result
records = [
    ("C[C@@H]1O[C@@H](CCCc2ccc(CC(N)C(=O)O)cc2)[C@@H](O)[C@H](O)[C@@H]1O (some centres unmarked)", 2.70),
]

Read the next record carefully.
Query: Note pIC50 for the molecule shown: CC1O[C@@H](C/C=C/c2ccc(C(=O)O)cc2)C(O)[C@@H](O)[C@@H]1O (some centres unmarked)
Response: 2.70
